system_name: AGO2 T357M (Homo sapiens, UniProt Q9UKV8 1-859, T357M;S387D;S824A;S828D;S831D;S834A)
Sequence (Q9UKV8 whole entry T357M/S387D/S824A/S828D/S831D/S834A): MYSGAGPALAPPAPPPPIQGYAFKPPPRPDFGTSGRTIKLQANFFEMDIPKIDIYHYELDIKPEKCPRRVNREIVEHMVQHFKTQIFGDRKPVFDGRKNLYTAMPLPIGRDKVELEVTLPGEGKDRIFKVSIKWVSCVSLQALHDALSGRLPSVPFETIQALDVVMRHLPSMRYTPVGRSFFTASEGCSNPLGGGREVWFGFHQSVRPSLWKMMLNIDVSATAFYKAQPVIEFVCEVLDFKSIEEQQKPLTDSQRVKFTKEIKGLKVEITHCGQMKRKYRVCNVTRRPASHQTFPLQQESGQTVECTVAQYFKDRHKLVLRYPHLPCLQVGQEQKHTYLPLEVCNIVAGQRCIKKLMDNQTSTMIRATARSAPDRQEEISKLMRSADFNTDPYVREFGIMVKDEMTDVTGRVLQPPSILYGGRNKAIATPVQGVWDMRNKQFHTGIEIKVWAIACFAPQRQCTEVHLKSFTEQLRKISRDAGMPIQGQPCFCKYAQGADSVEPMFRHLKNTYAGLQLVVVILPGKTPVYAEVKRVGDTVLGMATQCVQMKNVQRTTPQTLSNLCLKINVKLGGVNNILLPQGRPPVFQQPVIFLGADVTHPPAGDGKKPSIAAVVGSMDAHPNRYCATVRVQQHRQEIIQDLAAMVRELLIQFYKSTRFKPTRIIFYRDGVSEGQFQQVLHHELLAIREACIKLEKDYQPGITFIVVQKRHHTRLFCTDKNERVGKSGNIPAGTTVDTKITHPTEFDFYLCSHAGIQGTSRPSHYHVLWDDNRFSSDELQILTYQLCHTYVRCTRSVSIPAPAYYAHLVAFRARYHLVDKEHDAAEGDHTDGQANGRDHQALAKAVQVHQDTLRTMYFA
assay_overview: RNA Bind-n-Seq (nitrocellulose filter binding and sequencing); miR-122 guide loaded in AGO2; 60 min incubation; 30 mM Tris pH 8.0, 100 mM potassium acetate, 2 mM magnesium acetate, 0.5 mM TCEP, 0.005% NP-40, 0.01 mg/ml yeast tRNA; 3 nM AGO2-miR-122, 100 nM RNA library; 60; high values mean tight binding
reported_conditions: protein: recombinant; tags: His6 (N-terminal, pFastBac HTA)
experimental_readout: binding signal

| binder | experimental_readout | result |
| --- | --- | --- |
| ATGCCCTA (ssRNA, constant regions annealed to DNA blockers; guide miR-122 5' phosphate) RNA 1: GAGUUCUACAGUCCGACGAUCCCAACAUGCCCUACACCUGGAAUUCUCGGGUGCCAA RNA 2: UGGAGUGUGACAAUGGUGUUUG DNA 1: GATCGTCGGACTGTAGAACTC DNA 2: TTGGCACCCGAGAATTCCA | binding signal | 0.544 fold enrichment over input |
| GCACCCCG (ssRNA, constant regions annealed to DNA blockers; guide miR-122 5' phosphate) RNA 1: GAGUUCUACAGUCCGACGAUCCCAACGCACCCCGCACCUGGAAUUCUCGGGUGCCAA RNA 2: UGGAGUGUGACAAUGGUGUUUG DNA 1: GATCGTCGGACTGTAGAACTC DNA 2: TTGGCACCCGAGAATTCCA | binding signal | 0.634 fold enrichment over input |
| GCATTCTG (ssRNA, constant regions annealed to DNA blockers; guide miR-122 5' phosphate) RNA 1: GAGUUCUACAGUCCGACGAUCCCAACGCAUUCUGCACCUGGAAUUCUCGGGUGCCAA RNA 2: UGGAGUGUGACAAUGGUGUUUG DNA 1: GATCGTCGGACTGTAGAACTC DNA 2: TTGGCACCCGAGAATTCCA | binding signal | 0.44 fold enrichment over input |
| ATGTTTTG (ssRNA, constant regions annealed to DNA blockers; guide miR-122 5' phosphate) RNA 1: GAGUUCUACAGUCCGACGAUCCCAACAUGUUUUGCACCUGGAAUUCUCGGGUGCCAA RNA 2: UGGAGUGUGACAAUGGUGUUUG DNA 1: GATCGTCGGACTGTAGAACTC DNA 2: TTGGCACCCGAGAATTCCA | binding signal | 0.541 fold enrichment over input |
| GTACTTTG (ssRNA, constant regions annealed to DNA blockers; guide miR-122 5' phosphate) RNA 1: GAGUUCUACAGUCCGACGAUCCCAACGUACUUUGCACCUGGAAUUCUCGGGUGCCAA RNA 2: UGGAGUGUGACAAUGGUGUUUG DNA 1: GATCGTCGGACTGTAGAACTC DNA 2: TTGGCACCCGAGAATTCCA | binding signal | 0.46 fold enrichment over input |
| GTACCCCG (ssRNA, constant regions annealed to DNA blockers; guide miR-122 5' phosphate) RNA 1: GAGUUCUACAGUCCGACGAUCCCAACGUACCCCGCACCUGGAAUUCUCGGGUGCCAA RNA 2: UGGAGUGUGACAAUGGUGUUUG DNA 1: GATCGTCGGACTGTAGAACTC DNA 2: TTGGCACCCGAGAATTCCA | binding signal | 0.475 fold enrichment over input |
| ATGCCTTA (ssRNA, constant regions annealed to DNA blockers; guide miR-122 5' phosphate) RNA 1: GAGUUCUACAGUCCGACGAUCCCAACAUGCCUUACACCUGGAAUUCUCGGGUGCCAA RNA 2: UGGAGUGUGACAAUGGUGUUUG DNA 1: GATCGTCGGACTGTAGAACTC DNA 2: TTGGCACCCGAGAATTCCA | binding signal | 0.617 fold enrichment over input |
| ACACCTCA (ssRNA, constant regions annealed to DNA blockers; guide miR-122 5' phosphate) RNA 1: GAGUUCUACAGUCCGACGAUCCCAACACACCUCACACCUGGAAUUCUCGGGUGCCAA RNA 2: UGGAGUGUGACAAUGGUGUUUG DNA 1: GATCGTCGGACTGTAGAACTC DNA 2: TTGGCACCCGAGAATTCCA | binding signal | 0.737 fold enrichment over input |
